- Test system: L1210 leukemia ip in BDF1 mice, survival T/C
- Measurement protocol: NCI In Vivo Anticancer Drug Screen. Data for tumor model L1210 Leukemia (intraperitoneal) in B6D2F1 (BDF1) mice
- Protocol conditions: endpoint: mean survival time; dose: 100.0 mg/kg/injection; schedule: Q01DX001 (ip); vehicle: saline with Tween-80; higher = longer survival
Toxic doses and inconclusive results are not listed.
Test readout: T/C

Example compounds with recorded T/C:
S=C(Cc1ccc2ccccc2c1)N1CCOCC1 | 105 % of control
CSc1nnc(C)c(=O)[nH]1 | 100 % of control
N#CC1C(=O)N=C(c2ccccc2)CC1c1ccccc1 (configuration not stated) | 86 % of control
CCCCCCCCCCCCCC(C1CCCCC1)C1CCCCC1 | 113 % of control
CC(C)CCC(=O)OC1CCC2(C)C(=CCC3C2CCC2(C)C(O)CCC32)C1 (configuration not stated) | 92 % of control

stdin: Which value of T/C has been reported for "C=CC[n+]1c(C)ccc2ccccc21" in the records?
stdout: 114 % of control

stdin: Which value of T/C has been reported for CCOC(=O)c1ccc(N(CC(O)CN=[N+]=[N-])S(=O)(=O)c2ccc(C)cc2)cc1 (configuration not stated) in the records?
stdout: 101 % of control
